biological target: HLA-A*03:01; experiment: IEDB peptide-MHC binding, purified MHC/competitive/radioactivity; filed as Kd, often an IC50 or EC50 that approximates it; bounds were set here for any values at or beyond the usual limits of such assays; conditions: source organism: SARS coronavirus Tor2
Quantity name: Kd (nM)
Numbers only here, please. The scale is nM.

Sample answers from the record:
>>> readout_value("VQMLSDTLK")
74.3
>>> readout_value("TTEMLSRALK")
101
>>> readout_value("IVPFWITAIY")
71
>>> readout_value("TMADLVYALR")
2250
>>> readout_value("MLPPCYNFLK")
6.77
>>> readout_value("LMPILTLTR")
102
>>> readout_value("NVAYNVVNK")
469
>>> readout_value("SSYSLFDMSK")
18

## Task Param item = "TVSALVYDNK" ; retrieve measured Kd.
## Result 488

---

target: HLA-B*54:01; test: IEDB peptide-MHC binding, purified MHC/competitive/radioactivity; filed as Kd, often an IC50 or EC50 that approximates it; bounds were set here for any values at or beyond the usual limits of such assays; details: source organism: Vaccinia virus Copenhagen
Quantity name: Kd (nM)
Please give a number only; it is taken to be in nM.

## Task Tell me reported Kd for "FLTSVINRV" , tested with HLA-B*54:01.
## Result 904

---

target: HLA-A*03:01; experiment: IEDB peptide-MHC binding, purified MHC/direct/fluorescence; filed as Kd, often an IC50 or EC50 that approximates it; bounds were set here for any values at or beyond the usual limits of such assays; conditions: source organism: Influenza A virus (A/Hong Kong/485/1997(H5N1))
Quantity name: Kd

## Task Value lookup for Kd; key = "QMRDVLGTF"
## Result ≥ 20 µM

---

molecular target: HLA-B*07:02; experiment: IEDB peptide-MHC binding, purified MHC/competitive/fluorescence; filed as Kd, often an IC50 or EC50 that approximates it; bounds were set here for any values at or beyond the usual limits of such assays; settings: source organism: Vibrio parahaemolyticus AQ3810
Quantity name: Kd

## Task Requested field: Kd. Item: "HQFTSNPEV"
## Result ≥ 5 µM

---

biological target: HLA-A*68:01; assay: IEDB peptide-MHC binding, purified MHC/competitive/radioactivity; filed as Kd, often an IC50 or EC50 that approximates it; bounds were set here for any values at or beyond the usual limits of such assays; settings: source organism: Mammarenavirus machupoense
Quantity name: Kd

## Task Quick one: Kd of "HYIHCFRKPH" ?
## Result ≥ 70.1 µM

---

sequences and their reported pKd
target: HLA-B*58:01; test: IEDB peptide-MHC binding, purified MHC/direct/fluorescence; filed as Kd, often an IC50 or EC50 that approximates it; bounds were set here for any values at or beyond the usual limits of such assays; settings: source organism: Mycobacterium tuberculosis
Remember, pKd is on a log scale: it is -log10 of the molar concentration.

>>> readout_value("AVFLSYIGY")
4.77

Consider now this further sequence.
## Task # query: pKd | item "ATADLELAY" | system: HLA-B*58:01
## Result 8.01

---

target: HLA-B*58:01; test: IEDB peptide-MHC binding, purified MHC/direct/fluorescence; filed as Kd, often an IC50 or EC50 that approximates it; bounds were set here for any values at or beyond the usual limits of such assays; settings: source organism: Brucella abortus 2308
Quantity name: Kd

## Task # get_value(readout='Kd', item= "YWMGGTTYF" )
## Result ≥ 20 µM
